Below are compounds with their MIC as measured on Saccharomycese cerevisiae.

{"compound": "Cc1cc(C)c2c3c(sc2n1)C(=O)NC1(CCCCC1)N3 [Compound 6c]", "MIC / µg/mL": 16}
{"compound": "Cc1ccc(-c2cc(-c3ccccc3)nc3sc4c(c23)NC2(CCCC2)N=C4SCC2CO2)cc1 (stereo not drawn) [Compound 9b]", "MIC / µg/mL": 8}
{"compound": "Cc1ccc(-c2cc(-c3ccccc3)nc3sc4c(c23)NC2(CCCC2)N=C4SCC(N)=O)cc1 [Compound 8b]", "MIC / µg/mL": 16}
{"compound": "Cc1ccc(-c2cc(-c3ccccc3)nc3sc4c(=O)[nH]c(=O)[nH]c4c23)cc1 [Compound 2b]", "MIC / µg/mL": 32}
{"compound": "Cc1cc(C)c2c3c(sc2n1)C(=S)NC1(CCCCC1)N3 [Compound 7c]", "MIC / µg/mL": 8}
{"compound": "Cc1ccc(-c2cc(-c3ccccc3)nc3sc4c(=O)[nH]c(CN5CCOCC5)nc4c23)cc1 [Compound 5a]", "MIC / µg/mL": 8}
{"compound": "Cc1cc(C)c2c(n1)sc1c(=O)[nH]c(CCl)nc12 [Compound 4a]", "MIC / µg/mL": 8}
{"compound": "Cc1ccc(-c2cc(-c3ccccc3)nc3sc4c(Cl)nc(Cl)nc4c23)cc1 [Compound 3b]", "MIC / µg/mL": 64}
{"compound": "Cc1cc(C)c2c(n1)sc1c(=O)[nH]c(=O)[nH]c12 [Compound 2a]", "MIC / µg/mL": 16}
{"compound": "Cc1cc(C)c2c3c(sc2n1)C(SCC(N)=O)=NC1(CCCCC1)N3 [Compound 8a]", "MIC / µg/mL": 16}
{"compound": "Clc1ccccc1C(c1ccccc1)(c1ccccc1)n1ccnc1 [Clotrimazole, clotrimazole, reference compound]", "MIC / µg/mL": 8}
{"compound": "Cc1ccc(-c2cc(-c3ccccc3)nc3sc4c(c23)NC2(CCCC2)NC4=S)cc1 [Compound 7b]", "MIC / µg/mL": 32}
{"compound": "Cc1cc(C)c2c3c(sc2n1)C(=O)NC1(CCCC1)N3 [Compound 6a]", "MIC / µg/mL": 32}
{"compound": "Cc1cc(C)c2c3c(sc2n1)C(=S)NC1(CCCC1)N3 [Compound 7a]", "MIC / µg/mL": 8}
{"compound": "Cc1ccc(-c2cc(-c3ccccc3)nc3sc4c(c23)NC2(CCCC2)NC4=O)cc1 [Compound 6b]", "MIC / µg/mL": 8}
{"compound": "Cc1cc(C)c2c(n1)sc1c(Cl)nc(Cl)nc12 [Compound 3a]", "MIC / µg/mL": 8}
{"compound": "Cc1ccc(-c2cc(-c3ccccc3)nc3sc4c(c23)NC2(CCCCC2)NC4=O)cc1 [Compound 6d]", "MIC / µg/mL": 32}
{"compound": "Cc1ccc(-c2cc(-c3ccccc3)nc3sc4c(=O)[nH]c(CN5CCN(C)CC5)nc4c23)cc1 [Compound 5b]", "MIC / µg/mL": 16}
